Compiled notes: published log10 of Ki values involving Pepsin A (Sus scrofa, UniProt P00791).
Scale: decimal log of Ki, Ki in µM.

Illustrative cases are given below, each with its answer.
molecule="CC(C)CCC(=O)NC(=O)[C@H](C)NC(=O)CCC(O)[C@@H](CC(C)C)NC(=O)[C@H](NC(=O)CC(C)C)C(C)C (stereo partly drawn)" obs_value=-1.30
molecule="CC(C)[C@H](NC(=O)[C@H](NC(=O)OCc1ccccc1)C(C)C)C(=O)NC(c1ccc(O)cc1)C(O)CC(=O)O (stereo partly drawn)" obs_value=3.19
molecule="CC(C)CNC(=O)CNC(=O)[C@@H](C)CC(O)[C@@H](CC(C)C)NC(=O)[C@H](NC(=O)CC(C)C)C(C)C (stereo partly drawn)" obs_value=-1.28
molecule="CC(C)[C@H](NC(=O)OCc1ccccc1)C(=O)N[C@H](C(=O)NC(c1ccccc1)C(O)CC(=O)O)C(C)C (stereo partly drawn)" obs_value=-0.39
molecule=CC(C)CCNC(=O)[C@H](C)NC(=O)C[C@H](O)[C@H](CC(C)C)NC(=O)[C@@H](NC(=O)OC(C)C)C(C)C obs_value=-2.07
molecule="CC(C)CCNC(=O)[C@H](C)NC(=O)C[C@H](O)NC(C(=O)[C@H](NC(=O)CC(C)C)C(C)C)c1ccccc1 (stereo partly drawn)" obs_value=-3.05

Given CC(C)CCC(=O)NC(=O)[C@H](C)NC(=O)CC(=O)[C@H](CC(C)C)NC(=O)[C@@H](NC(=O)[C@@H](NC(=O)CC(C)C)C(C)C)C(C)C , report its log10 of Ki on Pepsin A (Sus scrofa, UniProt P00791).
Sequence (P00791 whole entry): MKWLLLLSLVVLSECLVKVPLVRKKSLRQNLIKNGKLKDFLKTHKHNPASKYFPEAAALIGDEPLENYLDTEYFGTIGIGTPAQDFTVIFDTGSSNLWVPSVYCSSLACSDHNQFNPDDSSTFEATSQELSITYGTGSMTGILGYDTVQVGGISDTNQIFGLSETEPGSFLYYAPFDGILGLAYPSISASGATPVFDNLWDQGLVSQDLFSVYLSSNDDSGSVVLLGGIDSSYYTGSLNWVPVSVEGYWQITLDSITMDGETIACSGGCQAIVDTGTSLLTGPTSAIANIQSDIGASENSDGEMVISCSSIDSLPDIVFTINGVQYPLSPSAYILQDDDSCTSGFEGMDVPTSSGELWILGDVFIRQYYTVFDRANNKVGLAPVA
-2.00

State measured log10 of Ki of the molecule CC(C)CCNC(=O)[C@H](C)NC(=O)C[C@H](O)[C@H](CC(C)C)NC(=O)[C@@H](NC(=O)[C@H](NC(=O)OC(C)(C)C)C(C)C)C(C)C with Pepsin A (Sus scrofa, UniProt P00791).
-1.96

* * *

log10(Ki) values for Pepsin A (Sus scrofa) compiled from several publications are listed below.
Heads up, the numbers here are log10 of Ki in nM units.

Example results:
compound=CC(C)CCNC(=O)[C@H](C)NC(=O)C[C@H](O)[C@H](CC(C)C)NC(=O)[C@@H](NC(=O)C(C)C)C(C)C measured_endpoint=log10(Ki) obs_value=0.20
compound=CCC[C@H](NC(=O)[C@H](Cc1ccc(OC)cc1)NC(=O)CC(C)C)C(=O)N[C@@H](CC1CCCCC1)C(=O)C(F)(F)CN measured_endpoint=log10(Ki) obs_value=4.60
compound=CC(C)CCNC(=O)[C@H](C)NC(=O)C[C@H](O)[C@H](CC(C)C)NC(=O)[C@@H](NC(=O)CC(C)(C)C)C(C)C measured_endpoint=log10(Ki) obs_value=0.88
compound="CC(C)CC(NC(=O)[C@@H](NC(=O)[C@@H](NC(=O)OCc1ccccc1)C(C)C)C(C)C)C(O)CC(=O)O (some centres undefined)" measured_endpoint=log10(Ki) obs_value=2.28
compound=CC(C)CC(=O)N[C@H](C(=O)N[C@H](C(=O)N[C@@H](CC(C)C)[C@@H](O)CC(=O)N[C@@H](C)C(=O)N[C@@H](CC(C)C)[C@@H](O)CC(=O)O)C(C)C)C(C)C measured_endpoint=log10(Ki) obs_value=-1.25

Answer with the recorded log10(Ki) for the compound listed here: CC(C)CCNC(=O)[C@H](C)NC(=O)C[C@H](O)C(CC(C)C)NC(=O)[C@H](NC(=O)CC(C)C)C(C)C (some centres undefined)
0.04

Consider the compound CC(C)CC(=O)N[C@H](C(=O)N[C@H](C(=O)N[C@H](CCC(=O)NC(C)C(=O)N[C@H](CCC(=O)O)CC(C)C)CC(C)C)C(C)C)C(C)C (some centres undefined) . State its measured log10(Ki).
2.32

Retrieve log10(Ki) measured for CCOC(=O)C[C@H](O)[C@H](CCCCNC(C)=O)NC(=O)[C@H](NC(=O)C(NC(=O)CC(C)C)C(C)C)C(C)C (some centres undefined) and print it.
3.28
